Values from ChEMBL document CHEMBL2074505

test-system: ATP-dependent translocase ABCB1 (Homo sapiens, UniProt P08183)
Sequence (P08183 whole entry): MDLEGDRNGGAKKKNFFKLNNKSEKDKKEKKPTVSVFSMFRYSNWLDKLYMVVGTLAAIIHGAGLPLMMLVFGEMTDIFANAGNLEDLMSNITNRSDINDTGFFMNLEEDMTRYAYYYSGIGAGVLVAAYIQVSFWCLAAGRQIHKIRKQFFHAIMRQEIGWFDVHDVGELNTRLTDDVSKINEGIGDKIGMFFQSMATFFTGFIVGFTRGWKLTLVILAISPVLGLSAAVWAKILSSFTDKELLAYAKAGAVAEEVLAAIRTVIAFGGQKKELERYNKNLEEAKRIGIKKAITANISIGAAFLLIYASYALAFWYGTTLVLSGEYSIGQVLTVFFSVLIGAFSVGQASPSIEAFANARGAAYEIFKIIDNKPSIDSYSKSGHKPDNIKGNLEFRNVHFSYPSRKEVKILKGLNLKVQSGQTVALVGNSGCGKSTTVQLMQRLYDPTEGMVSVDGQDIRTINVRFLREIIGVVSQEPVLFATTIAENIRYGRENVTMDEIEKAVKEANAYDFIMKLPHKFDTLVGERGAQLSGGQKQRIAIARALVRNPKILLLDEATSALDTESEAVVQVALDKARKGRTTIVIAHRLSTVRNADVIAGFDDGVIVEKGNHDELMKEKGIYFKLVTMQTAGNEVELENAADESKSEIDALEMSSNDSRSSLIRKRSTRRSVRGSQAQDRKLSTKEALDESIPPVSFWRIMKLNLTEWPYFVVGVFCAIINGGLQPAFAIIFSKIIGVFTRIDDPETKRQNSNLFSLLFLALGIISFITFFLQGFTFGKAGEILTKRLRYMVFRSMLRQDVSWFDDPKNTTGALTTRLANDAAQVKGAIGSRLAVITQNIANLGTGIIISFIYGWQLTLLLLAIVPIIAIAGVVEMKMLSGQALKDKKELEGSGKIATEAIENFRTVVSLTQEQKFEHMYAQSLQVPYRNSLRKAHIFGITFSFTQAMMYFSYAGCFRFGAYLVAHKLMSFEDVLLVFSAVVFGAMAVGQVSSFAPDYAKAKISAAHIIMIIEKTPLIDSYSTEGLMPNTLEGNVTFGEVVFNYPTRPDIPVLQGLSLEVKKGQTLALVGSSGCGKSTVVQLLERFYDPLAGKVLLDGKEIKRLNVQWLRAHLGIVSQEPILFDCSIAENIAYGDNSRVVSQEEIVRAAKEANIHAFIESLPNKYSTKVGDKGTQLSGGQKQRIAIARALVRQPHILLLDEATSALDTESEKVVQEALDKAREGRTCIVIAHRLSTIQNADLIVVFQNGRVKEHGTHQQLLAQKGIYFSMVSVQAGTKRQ
test-name: TP_TRANSPORTER: efflux in KB 8-5-11 Rluc cells
property-measured: EC50 (nM)

molecule_smiles=Oc1ccc(Cc2nc3c(Cc4ccccc4)nc(-c4ccc(O)cc4)cn3c2O)cc1 test_system="ATP-dependent translocase ABCB1 (Homo sapiens, UniProt P08183)" property_measured=EC50 value_unit=nM endpoint_result=147
